Reference source: patent US11414384B2

Target: p300 HAT domain (residues 1287-1666) (Homo sapiens (Human))
Sequence (Q09472 1287-1666): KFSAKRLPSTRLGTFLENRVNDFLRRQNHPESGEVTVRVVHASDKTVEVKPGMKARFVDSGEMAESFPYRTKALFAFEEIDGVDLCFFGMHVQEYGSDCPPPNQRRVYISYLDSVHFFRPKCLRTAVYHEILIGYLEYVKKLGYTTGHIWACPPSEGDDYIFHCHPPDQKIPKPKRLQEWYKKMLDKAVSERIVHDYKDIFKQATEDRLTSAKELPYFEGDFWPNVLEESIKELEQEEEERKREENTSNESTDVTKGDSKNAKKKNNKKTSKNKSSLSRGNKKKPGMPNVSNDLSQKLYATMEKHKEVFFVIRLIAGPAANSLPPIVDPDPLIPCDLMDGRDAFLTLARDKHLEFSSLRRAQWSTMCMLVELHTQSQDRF
Assay: p300 HAT SPA assay (scintillation proximity assay, acetylation of biotinylated H3(1-21) peptide)
Format: biochemical
Conditions: p300 HAT domain; average of at least 2 replicate titrations; read-out: P300 HAT SPA IC50
pIC50: −log10 of the molar value.
Assign class by pIC50: not lower than 6 means 1; lower than 6 means 0.

> print(dat)
                                   compound  qualitative.label
1  CCC(CNC(C(=O)c1c[nH]c2ccccc12)c1ccccc1)c1ccc(Cl)cc1 (single isomer, unassigned) [59 Isomer 2]                  0
2  CN(C)C(=O)Cc1ccc2c(C(=O)C(NCCc3ccc(C#N)cc3)c3ccccc3)c[nH]c2c1 (single isomer, unassigned) [63 Isomer 2]                  0
3  CCNC(=O)c1ccc2c(C(=O)C(NCC(C)c3ccc(C#N)cc3)c3ccccc3)cnn2c1 (single isomer, unassigned) [69 Isomer 3]                  0
4  Cn1cc(-c2ccc3c(C(=O)C(NCCc4ccc(C(N)=O)cc4)c4ccccc4)c[nH]c3c2)nn1 (single isomer, unassigned) [180 Isomer 2]                  1
5  Cn1cc(-c2ccc3c(C(=O)C(NCCc4ccc(Cl)cc4)c4ccccc4)c[nH]c3c2)nn1 (single isomer, unassigned) [104 Isomer 2]                  1
6  N#Cc1ccc(CCNC(C(=O)c2c[nH]c3cc(C(=O)NC4CS(=O)(=O)C4)ccc23)c2ccccc2)cc1 (single isomer, unassigned) [166 Isomer 2]                  1
7  O=C(c1c[nH]c2cc(-c3cccnn3)ccc12)C(NCCc1ccc(Cl)cc1)c1ccccc1 (single isomer, unassigned) [112 Isomer 2]                  1
8  N#Cc1ccc(CCNC(C(=O)c2c[nH]c3cc(-c4cnn(CCO)c4)ccc23)c2ccccc2)cc1 (single isomer, unassigned) [95 Isomer 2]                  1
9  NS(=O)(=O)c1ccc(CCNC(C(=O)c2c[nH]c3c(C(F)(F)F)cccc23)c2ccccc2)cc1 (single isomer, unassigned) [50 Isomer 1]                  0
